tgt: UniProtKB P25090
measurement.protocol: Change in calcium activity by peptide (Fura-2) in RBL cells overexpressing FPR2
run.conditions: calcium activity (Fura-2), graded per Table 3, read-out: EC50 for [Ca^2+] FPR2
Peptide text beside a SMILES is read from it.
measure: EC50

Need EC50, item CSCC[C@H](NC(=O)[C@H](CCCNC(=N)N)NC(C)=O)C(=O)N[C@@H](CCCNC(=N)N)C(=O)N[C@@H](Cc1ccc(O)cc1)C(=O)N[C@@H](CCCCN)C(=O)N[C@@H](Cc1ccc(O)cc1)C(=O)N[C@H](CCSC)C(N)=O [Peptide 39] (HELM PEPTIDE1{[ac].R.M.R.Y.K.Y.[dM].[am]}$$$$V2.0)
11 to 100 nM

GET /values?readout=EC50&item= CSCC[C@H](NC(C)=O)C(=O)N[C@@H](CCCCN)C(=O)N[C@@H](Cc1ccc(O)cc1)C(=O)N[C@@H](CCCCN)C(=O)N[C@H](C(=O)N[C@H](CCSC)C(N)=O)C(C)C [Peptide 18] (HELM PEPTIDE1{[ac].M.K.Y.K.V.[dM].[am]}$$$$V2.0)
< 10 nM

What measured EC50 goes with CSCC[C@@H](NC(=O)[C@@H](NC(=O)[C@H](CCCCN)NC(=O)[C@H](Cc1ccc(O)cc1)NC(=O)[C@H](CCCCN)NC(=O)[C@H](Cc1c[nH]c2ccccc12)NC(=O)[C@H](CCCCN)NC(C)=O)C(C)C)C(N)=O [Peptide 4] (HELM PEPTIDE1{[ac].K.W.K.Y.K.V.[dM].[am]}$$$$V2.0) ?
< 10 nM

---

tgt: UniProt P21462
Sequence (P21462 whole entry, species assumed): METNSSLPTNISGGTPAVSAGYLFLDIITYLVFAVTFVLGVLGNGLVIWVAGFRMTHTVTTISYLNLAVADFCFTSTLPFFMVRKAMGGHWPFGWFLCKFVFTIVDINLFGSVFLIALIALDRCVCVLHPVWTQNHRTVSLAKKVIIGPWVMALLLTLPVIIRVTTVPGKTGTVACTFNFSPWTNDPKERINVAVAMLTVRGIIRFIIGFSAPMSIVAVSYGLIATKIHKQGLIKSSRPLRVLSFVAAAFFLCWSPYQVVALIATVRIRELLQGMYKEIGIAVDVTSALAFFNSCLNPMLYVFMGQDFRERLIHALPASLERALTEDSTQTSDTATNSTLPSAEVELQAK
measurement.protocol: Change in calcium activity by peptide, FPR1 activation effect
run.conditions: calcium activity (Fura-2), graded per Table 3, read-out: EC50 for [Ca^2+] FPR1
pEC50: −log10 of the molar value. Peptide text beside a SMILES is read from it.
measure: pEC50

CC[C@H](C)[C@H](N)C(=O)N[C@@H](CCCCN)C(=O)N[C@@H](Cc1ccccc1)C(=O)N[C@@H](Cc1c[nH]c2ccccc12)C(=O)N[C@@H](CCSC)C(=O)N[C@H](CCSC)C(N)=O [Peptide 129] (HELM PEPTIDE1{I.K.F.W.M.[dM].[am]}$$$$V2.0)    < 5.00

Looking for the measured pEC50 of CSCC[C@H](NC(C)=O)C(=O)N[C@@H](CCCNC(=N)N)C(=O)N[C@@H](Cc1ccc(O)cc1)C(=O)N[C@@H](Cc1c[nH]c2ccccc12)C(=O)N[C@@H](Cc1ccc(O)cc1)C(=O)N[C@H](CCSC)C(N)=O [Peptide 86] (HELM PEPTIDE1{[ac].M.R.Y.W.Y.[dM].[am]}$$$$V2.0) , can you help?
< 5.00

---

tgt: FPR2 (Homo sapiens, UniProt P25090)
Sequence (P25090 whole entry, species assumed): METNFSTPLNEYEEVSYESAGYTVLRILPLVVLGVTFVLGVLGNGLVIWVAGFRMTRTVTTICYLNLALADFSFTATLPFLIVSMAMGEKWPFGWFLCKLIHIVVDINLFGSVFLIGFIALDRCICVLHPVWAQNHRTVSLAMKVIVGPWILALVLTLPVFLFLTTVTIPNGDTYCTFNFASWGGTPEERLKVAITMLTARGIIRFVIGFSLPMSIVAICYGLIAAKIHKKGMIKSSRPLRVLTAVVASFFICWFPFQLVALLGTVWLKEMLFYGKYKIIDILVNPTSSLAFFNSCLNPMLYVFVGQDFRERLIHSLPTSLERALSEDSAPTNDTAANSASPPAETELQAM
measurement.protocol: Change in calcium activity by peptide (Fura-2) in RBL cells overexpressing FPR2
run.conditions: calcium activity (Fura-2), graded per Table 3, read-out: EC50 for [Ca^2+] FPR2
Peptide text beside a SMILES is read from it.
Below, each entry is listed with its recorded EC50.

Reference set, count: 2
CSCC[C@@H](NC(=O)[C@H](Cc1ccc(O)cc1)NC(=O)[C@H](Cc1c[nH]c2ccccc12)NC(=O)[C@H](Cc1ccc(O)cc1)NC(=O)[C@H](CCCCN)NC(=O)[C@H](Cc1c[nH]c2ccccc12)NC(=O)[C@H](CCCCN)NC(C)=O)C(N)=O [Peptide 80] (HELM PEPTIDE1{[ac].K.W.K.Y.W.Y.[dM].[am]}$$$$V2.0)    < 10 nM
CSCC[C@H](NC(=O)[C@@H](N)CCCNC(=N)N)C(=O)N[C@@H](CCCNC(=N)N)C(=O)N[C@@H](Cc1ccc(O)cc1)C(=O)N[C@@H](CCCCN)C(=O)N1CCC[C@H]1C(=O)N[C@H](CCSC)C(N)=O [Peptide 50] (HELM PEPTIDE1{R.M.R.Y.K.P.[dM].[am]}$$$$V2.0)    < 10 nM

Attention now shifts to the item below.
Look at this molecule and give its reported EC50. CSCC[C@H](NC(=O)[C@H](CCCNC(=N)N)NC(C)=O)C(=O)N[C@@H](CCCNC(=N)N)C(=O)N[C@@H](Cc1ccc(O)cc1)C(=O)N[C@@H](Cc1c[nH]c2ccccc12)C(=O)N[C@@H](Cc1ccc(O)cc1)C(=O)N[C@H](CCSC)C(N)=O [Peptide 82] (HELM PEPTIDE1{[ac].R.M.R.Y.W.Y.[dM].[am]}$$$$V2.0)
< 10 nM

Reference for the values: patent US20250361268A1
